Numbers sourced from patent US20190127480A1.

- measuredOn: T1, Soluble heterodimeric CD3 protein (hCD3-epsilon/hCD3-delta) with either a human Fc tag (hFcΔAdp/hFc) or a … (human, UniProt P07766 23-126; P04234 22-105)
- T1 construct: also called hCD3ε/δ; not shown: Fc tag: human (hFcΔAdp/hFc)
- testProtocol: SPR Biacore 25C antigen-capture
valueKind: Kd (nM)
The figure you give is taken to be in nM; do not add the unit.

Recorded Kd, per entry:
1. H1H5786B (antibody, human IgG1, V domains shown, H1H: human IgG1 Fc; divalent) VH: QVQLVESGAEVKKPGASVKVSCKTSGYTFTGYYMHWIRQAPGQGLEWMGWINPKSGGTNYAQKFQGRVTMTRDTSISTAYMELSRLRSDDMAVYYCARMGDGAVFDFWGQGTLVTVSS VL: AIQMTQSPSSLSASVGDRVTITCRASQRISSFLNWYQQKPGKAPKLLIYTASNLQNGVPSRFSGSGSGTDFTLTISSLQPEDFATYYCQQSYRTPLTFGGGTKVEIKR : 0.141
2. H2M3540N (antibody, mouse IgG2, V domains shown, H2M: mouse IgG2 Fc, human variable regions; divalent) VH: QVHLEESGGGVVQPGRSLRLSCSASGFTFSSYAMHWVRQAPGKGLEWVAVIWYDGTNKYYLDSVKGRFTISRDNSKNTLFLQMNSLRAEDTAVYYCARDRGSIITHWGQGTLVTVSS VL: DIQMTQSPSSLSASIGDRVTITCRASQNISSYLNWYQQKPGKAPKLLIYAASSLQSGVPSRFSGSGSGTDFTLTISSLQPEDFATYYCQQTYSTPPITFGQGTRLEIK : 0.231
3. H1H5758B (antibody, human IgG1, V domains shown, H1H: human IgG1 Fc; divalent) VH: EVQLVESGGGVVQPGRSLRLSCAASGFTFSSYGMHWVRQAPGKGLEWVTVILHDGSNRYYADSVKGRFTISRDNSKNTLYLQMNILRAEDTAVYYCTKGAMVRGVPYNHYYGMDVWGQGTTVTVSS VL: DIVMTQSPSSLSASVGDRVTITCRASQGIRNDLGWYQQKPGKAPKRLIYAASNLQSGVPSRFSGSGSGTEFTLTISSLQPEDFATYYCLQHNSYPYTFGQGTKLEIKR : 3.97
4. H2M2706N (antibody, mouse IgG2, V domains shown, H2M: mouse IgG2 Fc, human variable regions; divalent) VH: QVQLVESGGGVVQPGRSLRLSCAASGFTFRSYAMHWVRQAPGKGLEWVAMVYYDGNNQYYADSVRGRFTISRDNSKNTLYLQMNSLRADDTAVYFCARGPGYNWLDPWGQGTLVTVSS VL: EIVMTQSPATLSVSPGERATLSCRASQSVSRNLAWYQQKPGQAPRLLIYGASTRATGIPARFSGSGSGTDFTLTISSLQSEDFAVYYCQQYNNWPLTFGGGTKVVIK : 0.544

Let's switch to this binder now.
Exercise: Can you look up the measured Kd of H2M2886N (antibody, mouse IgG2, V domains shown, H2M: mouse IgG2 Fc, human variable regions; divalent) VH: QVQLVESGGGVVQPGRSLRLSCAASGFTFRSFGMHWVRQAPGRGLEWVAMIYFDGKNKYYADSVRGRFTISRDNSKNTLYLEMSSLRAEDTAVYFCARGPGYNWLDPWGQGTLVTVSS VL: EIVMTQSPATLSVSPGERVILSCRASQSISRNLAWYQQKPGQAPRLLIYGATTRATGVPARFSGSGSGTEFTLTISSLQSEDFAVFYCQQYNNRPLTFGGGTEVEIK for me?
Key: 0.0956
